Data origin: paper PMC6025150

- systemName: acetylcholinesterase (from human erythrocytes) (Homo sapiens)
- Construct: acetylcholinesterase (from human erythrocytes, purchased from Sigma-Aldrich, Seoul, Korea); purchased Sigma-Aldrich, Seoul, Korea; host or cells: human erythrocytes (natural source)
- experimentDescription: biochemical
- statedConditions: Concentration 0.490196 (unit not given); IC50 Raw Data sheet
Recorded % inhibition values for a group of compounds are listed next.
Give your result in % as a bare value.

Below, each entry is followed by its recorded % inhibition result.
>>> experimentalresult("COc1ccc(CCN(Cc2ccc(C)cc2)S(=O)(=O)c2ccc(C)cc2)cc1 [Compound 5j]")
55.1859
>>> experimentalresult("COc1ccc(CCN(CCCc2ccccc2)S(=O)(=O)c2ccc(C)cc2)cc1 [Compound 5g]")
49.7315
>>> experimentalresult("COc1ccc(CCN(Cc2cccc(C)c2)S(=O)(=O)c2ccc(C)cc2)cc1 [Compound 5i]")
75.3297

Please find the next compound below.
For the compound shown here, COc1ccc(CCN(Cc2ccccc2C)S(=O)(=O)c2ccc(C)cc2)cc1 [Compound 5h] , give the reported % inhibition. 70.3899

###

- systemName: acetylcholinesterase (from human erythrocytes) (Homo sapiens, UniProt P22303)
- Construct: acetylcholinesterase (from human erythrocytes, purchased from Sigma-Aldrich, Seoul, Korea); purchased Sigma-Aldrich, Seoul, Korea; host or cells: human erythrocytes (natural source)
- Sequence (P22303 32-617 isoform P22303-2 limits assumed): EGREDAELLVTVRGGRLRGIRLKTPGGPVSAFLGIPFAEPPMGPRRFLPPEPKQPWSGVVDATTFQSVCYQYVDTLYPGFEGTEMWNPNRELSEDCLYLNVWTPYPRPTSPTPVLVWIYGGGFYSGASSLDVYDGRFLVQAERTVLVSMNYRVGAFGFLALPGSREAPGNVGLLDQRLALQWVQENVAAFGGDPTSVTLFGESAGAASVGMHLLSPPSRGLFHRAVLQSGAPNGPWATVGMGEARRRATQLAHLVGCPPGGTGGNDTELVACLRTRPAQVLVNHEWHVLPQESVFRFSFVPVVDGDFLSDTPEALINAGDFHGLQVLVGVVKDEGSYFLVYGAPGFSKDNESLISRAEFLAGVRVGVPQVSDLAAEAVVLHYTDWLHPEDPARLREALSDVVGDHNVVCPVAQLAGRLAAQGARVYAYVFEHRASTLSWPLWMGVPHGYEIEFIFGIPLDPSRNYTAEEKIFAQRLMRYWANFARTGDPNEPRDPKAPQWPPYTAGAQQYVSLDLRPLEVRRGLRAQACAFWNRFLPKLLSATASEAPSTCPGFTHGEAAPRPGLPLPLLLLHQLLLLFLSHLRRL
- experimentDescription: biochemical
- statedConditions: Concentration 0.980392 (unit not given); IC50 Raw Data sheet
quantityKind: % inhibition
Remember to quote the unit after the number.

Examples with answers:
>>> experimentalresult("COc1ccc(CCN(Cc2cccc(C)c2)S(=O)(=O)c2ccc(C)cc2)cc1")
"77.0449%"
>>> experimentalresult("COc1ccc(CCN(Cc2ccc(C)cc2)S(=O)(=O)c2ccc(C)cc2)cc1")
"59.8945%"
>>> experimentalresult("COc1ccc(CCN(CCCc2ccccc2)S(=O)(=O)c2ccc(C)cc2)cc1")
"59.7479%"

As a next step, examine the compound that follows.
API: value(readout= % inhibition, system= acetylcholinesterase (from human erythrocytes) (Homo sapiens, UniProt P22303), query= COc1ccc(CCN(Cc2ccccc2C)S(=O)(=O)c2ccc(C)cc2)cc1 ) 78.5107%

###

- systemName: acetylcholinesterase (from human erythrocytes) (Homo sapiens, UniProt P22303)
- Construct: acetylcholinesterase (from human erythrocytes, purchased from Sigma-Aldrich, Seoul, Korea); purchased Sigma-Aldrich, Seoul, Korea; host or cells: human erythrocytes (natural source)
- experimentDescription: biochemical
- statedConditions: Conc: 0.490196 (unit not given); mean of three; Raw Data of IC50 sheet
quantityKind: inhibition (Mean)
I'd appreciate a reply containing only the number, no unit.

Reported inhibition (Mean) for COc1ccc(CCN(CCCc2ccccc2)S(=O)(=O)c2ccc(C)cc2)cc1 : what is it? 49.6905

###

- systemName: acetylcholinesterase (from human erythrocytes) (Homo sapiens)
- Construct: acetylcholinesterase (from human erythrocytes, purchased from Sigma-Aldrich, Seoul, Korea); purchased Sigma-Aldrich, Seoul, Korea; host or cells: human erythrocytes (natural source)
- experimentDescription: biochemical
- statedConditions: Concentration 0.0306373 (unit not given); IC50 Raw Data sheet
Reported % inhibition is given for each of the following molecules.
Please state the figure in %; there is no need to write the unit.

# get_value(readout= % inhibition, system= acetylcholinesterase (from human erythrocytes) (Homo sapiens)) for COc1ccc(CCN(Cc2cccc(C)c2)S(=O)(=O)c2ccc(C)cc2)cc1 37.5596

GET /values?readout=% inhibition&system=acetylcholinesterase (from human erythrocytes) (Homo sapiens)&item= COc1ccc(CCN(Cc2ccccc2C)S(=O)(=O)c2ccc(C)cc2)cc1 40.4976

Record lookup: for acetylcholinesterase (from human erythrocytes) (Homo sapiens), what % inhibition belongs to COc1ccc(CCN(CCCc2ccccc2)S(=O)(=O)c2ccc(C)cc2)cc1 ? 15.576

// map COc1ccc(CCN(Cc2ccc(C)cc2)S(=O)(=O)c2ccc(C)cc2)cc1 to recorded % inhibition (system: acetylcholinesterase (from human erythrocytes) (Homo sapiens)) 17.621

###

- systemName: acetylcholinesterase (from human erythrocytes) (Homo sapiens)
- Construct: acetylcholinesterase (from human erythrocytes, purchased from Sigma-Aldrich, Seoul, Korea); purchased Sigma-Aldrich, Seoul, Korea; host or cells: human erythrocytes (natural source)
- experimentDescription: biochemical
- statedConditions: log(inhibitor) vs. response fit, single run; unit inferred; IC50 Raw Data sheet; read-out: IC50 (best-fit value) (converted)
quantityKind: IC50

>>> experimentalresult("CCCCCCCN(CCc1ccc(OC)cc1)S(=O)(=O)c1ccc(C)cc1")
"432 nM"

Item: COc1ccc(CCN(C(C)C)S(=O)(=O)c2ccc(C)cc2)cc1 Test system: acetylcholinesterase (from human erythrocytes) (Homo sapiens) Read-out: IC50 Value: ? 75 nM

Record lookup: for acetylcholinesterase (from human erythrocytes) (Homo sapiens), what IC50 belongs to CCCCCN(CCc1ccc(OC)cc1)S(=O)(=O)c1ccc(C)cc1 ? 384 nM

API: value(readout= IC50, system= acetylcholinesterase (from human erythrocytes) (Homo sapiens), query= CCCCN(CCc1ccc(OC)cc1)S(=O)(=O)c1ccc(C)cc1 ) 125 nM

###

- systemName: acetylcholinesterase (from human erythrocytes) (Homo sapiens)
- Construct: acetylcholinesterase (from human erythrocytes, purchased from Sigma-Aldrich, Seoul, Korea); purchased Sigma-Aldrich, Seoul, Korea; host or cells: human erythrocytes (natural source)
- experimentDescription: biochemical
- statedConditions: Conc: 1.96078 (unit not given); mean of three; Raw Data of IC50 sheet
quantityKind: inhibition (Mean)
Please state the value as a number alone, without comment.

What does the record list as inhibition (Mean) for COc1ccc(CCN(Cc2ccc(C)cc2)S(=O)(=O)c2ccc(C)cc2)cc1 ? 65.7178

What value of inhibition (Mean) has been reported for the following compound? COc1ccc(CCN(CCCc2ccccc2)S(=O)(=O)c2ccc(C)cc2)cc1 66.1998

So what's the measured inhibition (Mean) for this one? COc1ccc(CCN(Cc2cccc(C)c2)S(=O)(=O)c2ccc(C)cc2)cc1 87.5273

Need inhibition (Mean) of COc1ccc(CCN(Cc2ccccc2C)S(=O)(=O)c2ccc(C)cc2)cc1 , thanks. 85.3051

###

# reported IC50; entries follow
- systemName: acetylcholinesterase (from human erythrocytes) (Homo sapiens, UniProt P22303)
- Construct: acetylcholinesterase (from human erythrocytes, purchased from Sigma-Aldrich, Seoul, Korea); purchased Sigma-Aldrich, Seoul, Korea; host or cells: human erythrocytes (natural source)
- experimentDescription: biochemical
- statedConditions: from human erythrocytes; mean ± SEM; read-out: Acetylcholinesterase IC50 ± SEM

See these solved cases before continuing.
>>> experimentalresult("COc1ccc(CCN(Cc2ccc(C)cc2)S(=O)(=O)c2ccc(C)cc2)cc1 [Compound 5j]")
"1110 nM"
>>> experimentalresult("CCCCCCCN(CCc1ccc(OC)cc1)S(=O)(=O)c1ccc(C)cc1 [Compound 5f]")
"444 nM"
>>> experimentalresult("CCN(CCc1ccc(OC)cc1)S(=O)(=O)c1ccc(C)cc1 [Compound 5a]")
"22500 nM"
>>> experimentalresult("COc1ccc(CCN(C(C)C)S(=O)(=O)c2ccc(C)cc2)cc1 [Compound 5c]")
"75.1 nM"
>>> experimentalresult("COc1ccc(CCN(CCCc2ccccc2)S(=O)(=O)c2ccc(C)cc2)cc1 [Compound 5g]")
"798 nM"
>>> experimentalresult("COc1ccc(CCN(Cc2ccccc2C)S(=O)(=O)c2ccc(C)cc2)cc1 [Compound 5h]")
"1010 nM"
>>> experimentalresult("CCCN(CCc1ccc(OC)cc1)S(=O)(=O)c1ccc(C)cc1 [Compound 5b]")
"4160 nM"
>>> experimentalresult("CCCCN(CCc1ccc(OC)cc1)S(=O)(=O)c1ccc(C)cc1 [Compound 5d]")
"120 nM"

Requested read-out IC50, target or system acetylcholinesterase (from human erythrocytes) (Homo sapiens, UniProt P22303), entry COc1ccc(CCN(Cc2cccc(C)c2)S(=O)(=O)c2ccc(C)cc2)cc1 [Compound 5i] 470 nM

Form field - read-out: IC50; system: acetylcholinesterase (from human erythrocytes) (Homo sapiens, UniProt P22303); submitted item: CCCCCN(CCc1ccc(OC)cc1)S(=O)(=O)c1ccc(C)cc1 [Compound 5e] 398 nM

###

Form field: inhibition (Mean) (one value per entry).
- systemName: acetylcholinesterase (from human erythrocytes) (Homo sapiens)
- Construct: acetylcholinesterase (from human erythrocytes, purchased from Sigma-Aldrich, Seoul, Korea); purchased Sigma-Aldrich, Seoul, Korea; host or cells: human erythrocytes (natural source)
- experimentDescription: biochemical
- statedConditions: Conc: 0.245098 (unit not given); mean of three; Raw Data of IC50 sheet

Below, each entry is followed by its recorded inhibition (Mean) result.
>>> experimentalresult("COc1ccc(CCN(Cc2cccc(C)c2)S(=O)(=O)c2ccc(C)cc2)cc1")
71.0257
>>> experimentalresult("COc1ccc(CCN(Cc2ccc(C)cc2)S(=O)(=O)c2ccc(C)cc2)cc1")
49.2304
>>> experimentalresult("COc1ccc(CCN(CCCc2ccccc2)S(=O)(=O)c2ccc(C)cc2)cc1")
42.7571

Now for a further compound.
Given COc1ccc(CCN(Cc2ccccc2C)S(=O)(=O)c2ccc(C)cc2)cc1 , state its recorded inhibition (Mean). 63.2456
